Reference source for all entries: PubChem BioAssay AID652115

Experimental Target: NAD-dependent protein deacylase sirtuin-5, mitochondrial (Homo sapiens)
Method: blockers of sirtuin-5 deacylase activity – biochemical, fluorescence imaging, single point, set 5, primary screen (AID 652115)
Measurement Conditions: Purified SirT5, succinyl-peptide AMC, trypsin-coupled fluorescence; at 15 µM; active compounds read high
About 3,800 (1.2%) of roughly 330,000 compounds were called active. The sample as a whole holds a higher share of actives than the screen did.
Give measured inhibition for each item. Keep answers brief.
Give bare numbers, in %.

Completed entries (count: 4):
{"columns": ["Entry Smiles", "Experimental Target", "Quantitative Result"],
 "data": [
  ["CO[C@H]1CN(C)C(=O)c2ccc(NC(=O)c3ccno3)cc2OC[C@@H](C)N(S(C)(=O)=O)C[C@H]1C", "NAD-dependent protein deacylase sirtuin-5, mitochondrial (Homo sapiens)", 17],
  ["CCCNC(=S)N1CCC(NC(=O)c2ccc(OC)cc2)CC1", "NAD-dependent protein deacylase sirtuin-5, mitochondrial (Homo sapiens)", 2.19],
  ["COc1ccc2c3c(n(C)c2c1)[C@@H](CO)N(C(=O)CN1CCOCC1)CC31CCN(C(=O)C2CC2)CC1", "NAD-dependent protein deacylase sirtuin-5, mitochondrial (Homo sapiens)", -4.96],
  ["CCC(=O)N1C[C@@H](C)[C@H](OC)CN(C)C(=O)c2ccc(NC(=O)c3ccc(F)cc3)cc2OC[C@@H]1C", "NAD-dependent protein deacylase sirtuin-5, mitochondrial (Homo sapiens)", -5.95]
]}

// each compound listed below needs its inhibition
1. CC(C)OCCCNC(=S)N1CCC(C(=O)c2ccc3c(c2)OCCO3)CC1
2. CN(C)C(=O)C[C@H]1C=C[C@@H](NC(=O)C2CCC2)[C@@H](CO)O1
3. C[C@@H]1CCCCO[C@H](CN(C)Cc2ccc(Cl)c(Cl)c2)[C@H](C)CN([C@@H](C)CO)C(=O)c2cc(NC(=O)CCC(F)(F)F)ccc2O1
4. CO[C@H]1CN(C)C(=O)c2ccc(NC(=O)c3cnccn3)cc2OC[C@H](C)N(C)C[C@@H]1C

Marked response:
26.6
-0.42
11
0.983
